Target: mouse SGLT1 (Mus musculus, UniProt Q8C3K6)
Sequence (Q8C3K6 1-665): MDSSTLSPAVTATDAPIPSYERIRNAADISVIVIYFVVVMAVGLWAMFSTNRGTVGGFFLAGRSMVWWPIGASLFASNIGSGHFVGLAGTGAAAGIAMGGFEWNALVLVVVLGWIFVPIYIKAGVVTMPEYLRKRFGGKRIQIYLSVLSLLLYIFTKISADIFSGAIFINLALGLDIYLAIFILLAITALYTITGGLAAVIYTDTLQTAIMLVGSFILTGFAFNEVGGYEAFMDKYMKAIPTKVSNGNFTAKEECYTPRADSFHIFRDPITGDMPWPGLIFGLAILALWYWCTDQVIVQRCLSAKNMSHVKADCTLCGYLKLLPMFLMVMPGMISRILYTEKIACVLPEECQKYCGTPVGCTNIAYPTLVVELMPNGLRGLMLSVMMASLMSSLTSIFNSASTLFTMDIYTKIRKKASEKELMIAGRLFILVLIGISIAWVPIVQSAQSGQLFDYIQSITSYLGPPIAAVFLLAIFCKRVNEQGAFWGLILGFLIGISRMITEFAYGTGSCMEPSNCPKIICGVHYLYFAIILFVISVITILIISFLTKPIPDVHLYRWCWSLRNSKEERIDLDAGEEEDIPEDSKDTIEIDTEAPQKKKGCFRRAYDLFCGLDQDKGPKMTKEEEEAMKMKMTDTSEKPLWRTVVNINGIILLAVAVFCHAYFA
Test: Sodium-dependent 14C-AMG uptake assay in CHO-K1 cells expressing mouse SGLT1
Conditions: n=5
Observation Type: IC50 (nM)
Give bare numbers, in nM.

## Input Can you look up the measured IC50 of `Cc1cccc2c1c(Cc1ccc(OCCCN3CCCC4(CCN(C(=O)CNC(=O)NCC(C)C)CC4)C3)cc1)cn2[C@@H]1O[C@H](CO)[C@@H](O)[C@H](O)[C@H]1O` for me?
## Output 14.9
